# experimental-protocol: Human HepG2 cell viability assay in 384 well format
# Type: toxicity, cell-based
# Design: dose 125 nL, time 70.5 hour; concentration not given beside the values
# experimental-conditions: HepG2 cells, read-out: Inhibition
endpoint: cytotoxicity at 70.5 h (%)

>  <compound>
CN(C)c1ncc2c(n1)C1(CCN(Cc3ccccc3)C1)COC2 (stereo not drawn)

>  <endpoint>
cytotoxicity at 70.5 h

>  <test-result>
-5.25

$$$$
>  <compound>
Cc1nc(Cn2c(=O)cnc3ccccc32)n(C)n1

>  <endpoint>
cytotoxicity at 70.5 h

>  <test-result>
-24.2

$$$$
>  <compound>
CN(Cc1ccccc1)c1ncccc1CNC1CCSCC1

>  <endpoint>
cytotoxicity at 70.5 h

>  <test-result>
-2.31

$$$$
>  <compound>
COCC(=O)N1Cc2nccn2CC(Cn2ncccc2=O)C1 (stereo not drawn)

>  <endpoint>
cytotoxicity at 70.5 h

>  <test-result>
-10

$$$$
>  <compound>
O=C(CCCc1ccc(Cl)cc1)N1CCN(C(=O)c2ccc[nH]2)CC1

>  <endpoint>
cytotoxicity at 70.5 h

>  <test-result>
1.45

$$$$
>  <compound>
Cc1nc(CNc2ccc(C(=O)NCc3ccco3)cc2C)no1

>  <endpoint>
cytotoxicity at 70.5 h

>  <test-result>
-11.5

$$$$
>  <compound>
COc1ccc(CN(C(=O)C2CCCS2)c2ccncc2)cc1 (stereo not drawn)

>  <endpoint>
cytotoxicity at 70.5 h

>  <test-result>
-8.12

$$$$
>  <compound>
CCCC(=O)N1CCC(c2cc[nH]n2)C1 (stereo not drawn)

>  <endpoint>
cytotoxicity at 70.5 h

>  <test-result>
0.0603

$$$$
>  <compound>
Cc1cccc(C(=O)N2CCC(c3n[nH]c(C4CC4)n3)CC2)c1

>  <endpoint>
cytotoxicity at 70.5 h

>  <test-result>
20.7

$$$$
>  <compound>
CCCc1nc(C)cc(N2CCC3(CCC(=O)N(CC4CC4)C3)CC2)n1

>  <endpoint>
cytotoxicity at 70.5 h

>  <test-result>
-11.1

$$$$
>  <compound>
Oc1ccccc1-c1cc(-c2nc(C3CC3)n[nH]2)[nH]n1

>  <endpoint>
cytotoxicity at 70.5 h

>  <test-result>
-6.44

$$$$
>  <compound>
CC1CN(C)CCN1C(=O)Cc1cc(Cl)c2c(c1)OCCO2 (stereo not drawn)

>  <endpoint>
cytotoxicity at 70.5 h

>  <test-result>
-6.51

$$$$
>  <compound>
Cn1ccnc1C(O)(CCNCc1ccc(Cl)o1)C(F)(F)F (stereo not drawn)

>  <endpoint>
cytotoxicity at 70.5 h

>  <test-result>
-14.8

$$$$
>  <compound>
CC(C)N1CCCCC1CCn1cnc2cc(C(F)(F)F)ccc2c1=O (stereo not drawn)

>  <endpoint>
cytotoxicity at 70.5 h

>  <test-result>
-12.9

$$$$
>  <compound>
Cc1nc2c(c(N3CCC(CCn4cccn4)CC3)n1)CCNCC2

>  <endpoint>
cytotoxicity at 70.5 h

>  <test-result>
-2.46

$$$$
>  <compound>
CC(NC(=O)c1ccc(Cl)cc1)c1nnc(SCC(N)=O)n1C (stereo not drawn)

>  <endpoint>
cytotoxicity at 70.5 h

>  <test-result>
-8

$$$$
>  <compound>
CCc1nc(CNc2ccc(F)c(F)c2)no1

>  <endpoint>
cytotoxicity at 70.5 h

>  <test-result>
-7.5

$$$$
>  <compound>
CN(C)C(=O)C(C)(C)c1ccc2c(c1)OCCO2

>  <endpoint>
cytotoxicity at 70.5 h

>  <test-result>
-5.25

$$$$
>  <compound>
COc1cccc(OCC(=O)N2CCCSCC2CN2CCOCC2)c1 (stereo not drawn)

>  <endpoint>
cytotoxicity at 70.5 h

>  <test-result>
14.1

$$$$
>  <compound>
Cc1nc(C)n(CC2CCCN2c2ncnc3ccsc23)n1 (stereo not drawn)

>  <endpoint>
cytotoxicity at 70.5 h

>  <test-result>
-5.53

$$$$
>  <compound>
CNC(=O)N1CCC(=Cc2ccccc2)CC1

>  <endpoint>
cytotoxicity at 70.5 h

>  <test-result>
-12

$$$$
>  <compound>
CC1=N[C@@]2(CC[C@@H]3CN(C(=O)Nc4ccc(F)cc4)C[C@@H]32)C(=O)N1C

>  <endpoint>
cytotoxicity at 70.5 h

>  <test-result>
-101

$$$$
>  <compound>
Cc1ccc(OCC2CCCN(C(=O)CCn3ccccc3=O)C2)cc1 (stereo not drawn)

>  <endpoint>
cytotoxicity at 70.5 h

>  <test-result>
0.753

$$$$
>  <compound>
Cn1cc(C(=O)N[C@@H]2CN(Cc3ccoc3)[C@@H]3CCCO[C@@H]32)cn1

>  <endpoint>
cytotoxicity at 70.5 h

>  <test-result>
-5.02

$$$$
>  <compound>
Cn1cncc1-c1nnc([C@H]2CCN(CC3CCCCC3)C2)o1

>  <endpoint>
cytotoxicity at 70.5 h

>  <test-result>
-1.28

$$$$
>  <compound>
CC(C)n1[nH]c(=O)c2c1NC(=O)CC2c1cccc2cccnc12 (stereo not drawn)

>  <endpoint>
cytotoxicity at 70.5 h

>  <test-result>
15.8

$$$$
>  <compound>
Cc1ccc2nc(CN3CCN(C4CCCC4)C(=O)C3)cc(O)c2c1

>  <endpoint>
cytotoxicity at 70.5 h

>  <test-result>
9.29

$$$$
>  <compound>
CC(c1nnc(-c2cccs2)o1)N1CCc2cncnc2C1 (stereo not drawn)

>  <endpoint>
cytotoxicity at 70.5 h

>  <test-result>
-1.71

$$$$
>  <compound>
Cn1nc(C2CCN(CC(=O)NC3CC3)CC2)n(-c2ccccc2)c1=O

>  <endpoint>
cytotoxicity at 70.5 h

>  <test-result>
-8.96

$$$$
>  <compound>
COC[C@]1(O)CCN(c2cc(C3CC3)ncn2)CC1(C)C

>  <endpoint>
cytotoxicity at 70.5 h

>  <test-result>
-10.5

$$$$
>  <compound>
CN(CCC(F)(F)F)C(=O)c1nc(S(C)(=O)=O)n2ccccc12

>  <endpoint>
cytotoxicity at 70.5 h

>  <test-result>
25.3

$$$$
>  <compound>
CCN1CCCC1CN(CCN(C)C)S(=O)(=O)c1ccccc1C#N (stereo not drawn)

>  <endpoint>
cytotoxicity at 70.5 h

>  <test-result>
29.4

$$$$
>  <compound>
NC(=O)CN1CCC(c2csc(Nc3cnccn3)n2)CC1

>  <endpoint>
cytotoxicity at 70.5 h

>  <test-result>
-4.74

$$$$
>  <compound>
CC(Cc1ccc(Cl)cc1)NC(=O)Nc1cnn(CC(N)=O)c1 (stereo not drawn)

>  <endpoint>
cytotoxicity at 70.5 h

>  <test-result>
-8.4

$$$$
>  <compound>
COCCNC1(c2ccc(Cl)cc2)CCOCC1

>  <endpoint>
cytotoxicity at 70.5 h

>  <test-result>
11

$$$$
>  <compound>
O=S(=O)(CCc1ccccc1)Cc1nc(C2CC2)no1

>  <endpoint>
cytotoxicity at 70.5 h

>  <test-result>
-13

$$$$
>  <compound>
O=C(c1c[nH]c2ccccc2c1=O)N1CCSCC1

>  <endpoint>
cytotoxicity at 70.5 h

>  <test-result>
-6.3

$$$$
>  <compound>
CC(C)C(=O)Nc1ccc2c(c1)ncn2CC(=O)NCCN(C)C

>  <endpoint>
cytotoxicity at 70.5 h

>  <test-result>
-7

$$$$
>  <compound>
O=C(NCCCF)Nc1ccc2nc(N3CCOCC3)oc2c1

>  <endpoint>
cytotoxicity at 70.5 h

>  <test-result>
12.5

$$$$
>  <compound>
O=C(NC[C@H]1C[C@@H]2CCN1C[C@@H]2CN1CCCCC1)Nc1ccsc1

>  <endpoint>
cytotoxicity at 70.5 h

>  <test-result>
-16

$$$$
>  <compound>
CC(=O)N1CCN(C(=O)CCNc2snc(Cl)c2C#N)CC1

>  <endpoint>
cytotoxicity at 70.5 h

>  <test-result>
-10.6

$$$$
>  <compound>
c1ccc2sc(CN3CCCC3c3noc(C4CC4)n3)nc2c1 (stereo not drawn)

>  <endpoint>
cytotoxicity at 70.5 h

>  <test-result>
4.52

$$$$
>  <compound>
COc1ccc(-n2ncc(C(C)NC3CCOCC3)c2C)cc1 (stereo not drawn)

>  <endpoint>
cytotoxicity at 70.5 h

>  <test-result>
-1.36

$$$$
>  <compound>
Cc1ccc2c(c1)C(=O)NCC1(CCN(C(=O)c3scnc3C)CC1)O2

>  <endpoint>
cytotoxicity at 70.5 h

>  <test-result>
-6.59

$$$$
>  <compound>
Cc1nc(C2CCN(C[C@H](C)CO)CC2)cc(N2CCOCC2)n1

>  <endpoint>
cytotoxicity at 70.5 h

>  <test-result>
-0.547

$$$$
>  <compound>
Cc1ccc2c(c1)OC(C)CN2C(=O)CCc1cccnc1 (stereo not drawn)

>  <endpoint>
cytotoxicity at 70.5 h

>  <test-result>
1.51

$$$$
>  <compound>
Cc1ccc(CC(=O)NC(C)C(=O)N2CCS(=O)(=O)CC2)cc1 (stereo not drawn)

>  <endpoint>
cytotoxicity at 70.5 h

>  <test-result>
-2.68

$$$$
>  <compound>
CC(=O)N1CCC(c2cccc(Oc3ccccc3)n2)CC1

>  <endpoint>
cytotoxicity at 70.5 h

>  <test-result>
-3.81

$$$$
